Values were extracted from the RNAGym collection of RNA variant scans (doi:10.7554/elife.80360).

B1: Hairpin Ribozyme (parent)
chain: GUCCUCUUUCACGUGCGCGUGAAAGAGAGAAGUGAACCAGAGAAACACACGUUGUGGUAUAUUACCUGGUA

variants of: B1; assay: self-cleavage, relative activity (ratio to wild type); higher = more cleavage; co-transcriptional
The reader will find reported self-cleavage values listed item by item below.
Just the number.

Examples with their reported self-cleavage follow.
1) U8C U70C	0.651
2) C48A U52C	0.162
3) C3U U53G	0.517
4) G25U G68A	0.183
5) G57U A61G	0.296

Request: Query (variant): A45G C66G ; field requested: self-cleavage
Result: 0.122

Request: # repeat for A45C C46A
Result: 0.152

Request: # repeat for A11U A61U
Result: 0.247
